The reported numbers originate from PubChem BioAssay (NCI).

Experiment: NCI Yeast Anticancer Drug Screen. Data for the bub3 strain (AID 167)
Settings: S. cerevisiae bub3 mutant strain, at 50.0 µM, hits give high values
Procedure: Growth inhibition of yeast strains with defined genetic alterations is measured as a screen for potential anti-cancer activity. Selected strains with alterations in DNA damage repair or cell cycle control were exposed to compounds and growth inhibition was measured relative to vehicle treated controls. The strain used in this assay is bub3
The panel holds about 79,000 compounds, 15% with a hit somewhere; the sample as a whole holds those more often.
ENDPOINT LABEL: growth inhibition (%)
Give bare numbers, in %.

Illustrative cases are given below, each with its answer.
- COMPOUND: "O=c1/c(=C/c2ccco2)sc2nc3ccccc3n12"
  ENDPOINT LABEL: "growth inhibition"
  QUANTITY UNIT: "%"
  RECORDED MEASUREMENT: 30.1
- COMPOUND: "COC(=O)CCC(=O)c1ccc2c(c1)CC1(C2)Cc2ccc3c(c2C1)CCCC3=O (stereo not given)"
  ENDPOINT LABEL: "growth inhibition"
  QUANTITY UNIT: "%"
  RECORDED MEASUREMENT: -13.6
- COMPOUND: "CC(C)S(=O)(=O)C(C)C"
  ENDPOINT LABEL: "growth inhibition"
  QUANTITY UNIT: "%"
  RECORDED MEASUREMENT: -13.6
- COMPOUND: "Cc1ccc(NC(=O)/C=C/c2ccccc2)cc1Cl"
  ENDPOINT LABEL: "growth inhibition"
  QUANTITY UNIT: "%"
  RECORDED MEASUREMENT: 27.4
- COMPOUND: "CC(=O)[C@H]1C[C@@H](CC(=O)O)C1(C)C"
  ENDPOINT LABEL: "growth inhibition"
  QUANTITY UNIT: "%"
  RECORDED MEASUREMENT: -3.25

State recorded growth inhibition for all listed compounds.
1. O=C(c1ccncc1)c1c(Cc2ccccc2)ccc2ccccc12
2. C/C(=N\O)c1cccs1
3. Nc1ncnc2c1nnn2CC(O)CO (stereo not given)
4. O=C(NCc1ccccc1)C1CCN(Cc2c[nH]c3ccccc23)CC1
5. Nc1ccc(C(=O)Nc2ccc3c(O)cc(S(=O)(=O)O)cc3c2)cc1

5.45
-0.25
-2.9
1.7
-10.5

State recorded growth inhibition for all listed compounds.
1. O=C1CCCNc2c(Br)cc(Br)cc21
2. CC1(C)CC(C2=NCCO2)CC(C)(C)N1
3. COc1ccc(C(C)=O)c(O)c1OC
4. CC(C)(C)c1ccc(O)c(C(O)c2cccnc2)c1 (stereo not given)
5. OCCCN=C1CCCCC1
6. CC1(C)CC2(C)Sc3ccccc3N2C(=S)N1 (stereo not given)
7. COc1cc(-c2ccccc2)c(OC)cc1CCl

1. 46.5
2. 15.2
3. -3.1
4. 29.8
5. -11
6. -0.75
7. 13.7
